Biological target: 14-3-3γ (Homo sapiens)
Construct: made in house; host or cells: E. coli NiCo21 (DE3)
Sequence (P61981 whole entry): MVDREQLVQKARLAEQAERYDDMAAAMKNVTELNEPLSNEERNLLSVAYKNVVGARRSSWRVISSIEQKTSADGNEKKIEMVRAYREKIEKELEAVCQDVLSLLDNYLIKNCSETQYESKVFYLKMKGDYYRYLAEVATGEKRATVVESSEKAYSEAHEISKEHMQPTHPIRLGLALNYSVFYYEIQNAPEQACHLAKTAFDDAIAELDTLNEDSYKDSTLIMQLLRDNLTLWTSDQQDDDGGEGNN
Test: Isothermal titration calorimetry (ITC) of 14-3-3 binding to peptide
Details: Table S5; ΔG minus ΔG of peptide 1, ITC; second unlabelled line (replicate 2)
Where a SMILES comes first, the peptide text is derived from it. [ ]: non-standard residue; d: D form. ξ: configuration not given here. Phe(4-NO2) = N[C@@H](Cc1ccc([N+](=O)[O-])cc1)C(=O)O; ξAla(4-thiazolyl) = NC(Cc1cscn1)C(=O)O; pS = N[C@@H](COP(=O)(O)O)C(=O)O; β3hS = N[C@@H](CO)CC(=O)O; Nva = CCC[C@H](N)C(=O)O; βAla = NCCC(=O)O
ATTRIBUTE MEASURED: ΔΔG to 1

CCC[C@H](NC(=O)[C@H](N)CCCCN)C(=O)N[C@@H](Cc1ccc([N+](=O)[O-])cc1)C(=O)NC(Cc1cscn1)C(=O)N[C@@H](COP(=O)(O)O)C(=O)N[C@@H](Cc1ccccc1)C(=O)N[C@@H](CO)CC(=O)NCCC(=O)N[C@@H](Cc1ccc([N+](=O)[O-])cc1)C(=O)N[C@@H](CCCCN)C(N)=O (stereo partly drawn) [4b] (H-[dK][Nva][Phe(4-NO2)][ξAla(4-thiazolyl)][pS]F[β3hS][βAla][Phe(4-NO2)]K-NH2; N-terminus and C-terminus assumed): -0.1 kcal/mol

Please turn your attention to the following entry.
### Prompt # get_value(readout='ΔΔG to 1', item= CCC[C@H](NC(=O)[C@H](N)CCCCN)C(=O)N[C@@H](Cc1ccc([N+](=O)[O-])cc1)C(=O)NC(Cc1cscn1)C(=O)N[C@@H](COP(=O)(O)O)C(=O)N[C@@H](Cc1ccc([N+](=O)[O-])cc1)C(=O)N[C@@H](CO)CC(=O)NCCC(=O)N[C@@H](C)C(=O)N[C@@H](CCCCN)C(N)=O (stereo partly drawn) [5c] (H-[dK][Nva][Phe(4-NO2)][ξAla(4-thiazolyl)][pS][Phe(4-NO2)][β3hS][βAla]AK-NH2; N-terminus and C-terminus assumed) )
### Response 2.7 kcal/mol

The values you see were collected from paper PMC9667936.
